target: human GR (Homo sapiens, UniProt P04150); construct: U937 cells contain an endogenous glucocorticoid receptor (GR); endogenous in cells; host or cells: U937 cells stably transfected with the TNF-alpha promoter/beta-lactamase reporter; assay: Transrepression Assay (GITAR), TNFα-β-lactamase reporter gene in U937 cells; format: cell-based; conditions: GITAR Emax minus GRAMMER Emax; Table 1
Sequence (P04150 whole entry): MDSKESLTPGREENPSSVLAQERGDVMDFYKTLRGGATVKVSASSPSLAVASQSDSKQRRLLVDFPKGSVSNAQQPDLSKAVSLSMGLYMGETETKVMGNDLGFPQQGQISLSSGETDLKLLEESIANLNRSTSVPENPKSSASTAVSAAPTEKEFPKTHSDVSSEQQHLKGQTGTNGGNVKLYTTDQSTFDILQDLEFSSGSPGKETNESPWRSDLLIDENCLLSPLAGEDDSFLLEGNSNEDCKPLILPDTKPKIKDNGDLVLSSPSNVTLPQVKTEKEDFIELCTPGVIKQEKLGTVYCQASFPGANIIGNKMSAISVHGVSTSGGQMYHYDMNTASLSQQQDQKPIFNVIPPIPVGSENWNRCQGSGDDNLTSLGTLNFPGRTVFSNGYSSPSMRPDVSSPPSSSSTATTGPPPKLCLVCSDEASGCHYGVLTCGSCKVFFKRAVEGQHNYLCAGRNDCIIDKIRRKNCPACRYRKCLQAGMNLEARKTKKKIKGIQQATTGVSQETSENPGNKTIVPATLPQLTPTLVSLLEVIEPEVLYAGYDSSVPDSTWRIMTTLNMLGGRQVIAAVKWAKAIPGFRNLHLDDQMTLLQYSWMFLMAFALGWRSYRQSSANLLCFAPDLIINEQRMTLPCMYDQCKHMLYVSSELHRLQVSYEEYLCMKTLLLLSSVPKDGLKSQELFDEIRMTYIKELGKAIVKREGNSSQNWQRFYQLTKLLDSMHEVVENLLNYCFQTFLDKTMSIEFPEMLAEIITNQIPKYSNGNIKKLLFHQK
PROPERTY: GITAR Greater than by GRAMMER % SEP
Answer format: number, then unit.

// sample Cc1ccc(CCN(CC(O)CC(F)(F)F)C(=O)[C@H]2CCC3=Cc4c(cnn4-c4ccc(F)cc4)C[C@@]32C)cc1 (some centres unmarked) , its GITAR Greater than by GRAMMER % SEP was 31.1%

// sample `C[C@H](O)CN(CCc1ccccc1F)C(=O)[C@H]1CCC2=Cc3c(cnn3-c3ccc(F)cc3)C[C@@]21C` , its GITAR Greater than by GRAMMER % SEP was 42.6%

// sample `C[C@]12Cc3cnn(-c4ccc(F)cc4)c3C=C1CC[C@@H]2C(=O)N(CCO)Cc1cccc(F)c1` , its GITAR Greater than by GRAMMER % SEP was 44.1%

// sample C[C@]12Cc3cnn(-c4ccc(F)cc4)c3C=C1CC[C@@H]2C(=O)N1CCCCC1Cc1ccccc1 (some centres unmarked) , its GITAR Greater than by GRAMMER % SEP was 11.7%

// sample CCN(CC(O)C(F)(F)F)C(=O)[C@H]1CCC2=Cc3c(cnn3-c3ccccc3)C[C@@]21C (some centres unmarked) [Compound 77] , its GITAR Greater than by GRAMMER % SEP was 10.2%

// sample `CCCN(CCO)C(=O)[C@H]1CCC2=Cc3c(cnn3-c3ccc(F)cc3)C[C@@]21C` , its GITAR Greater than by GRAMMER % SEP was 31.3%

// sample `C[C@H](O)CN(CCC(F)(F)F)C(=O)[C@H]1CCC2=Cc3c(cnn3-c3ccc(F)cc3)C[C@@]21C` , its GITAR Greater than by GRAMMER % SEP was 18.4%

// sample `CO[C@H](C)CN(C)C(=O)[C@H]1CCC2=Cc3c(cnn3-c3ccc(F)cc3)C[C@@]21C` , its GITAR Greater than by GRAMMER % SEP was 6.5%

// sample C[C@]12Cc3cnn(-c4ccc(F)cc4)c3C=C1CC[C@@H]2C(=O)N1CCCC(Cc2cccc(C(F)(F)F)c2)C1 (some centres unmarked) , its GITAR Greater than by GRAMMER % SEP was 1.9%

// sample `COCCN(Cc1ccc(OC)cc1)C(=O)[C@H]1CCC2=Cc3c(cnn3-c3ccc(F)cc3)C[C@@]21C` , its GITAR Greater than by GRAMMER % SEP was 17.1%

// sample `C[C@]12Cc3cnn(-c4ccc(F)cc4)c3C=C1CC[C@@H]2C(=O)Nc1ccccc1` , its GITAR Greater than by GRAMMER % SEP was 11.5%

// sample `Cc1ccc(CN(CCO)C(=O)[C@H]2CCC3=Cc4c(cnn4-c4ccc(F)cc4)C[C@@]32C)cc1F` , its GITAR Greater than by GRAMMER % SEP was 45.6%

// sample `C[C@]12Cc3cnn(-c4ccc(F)cc4)c3C=C1CC[C@@H]2C(=O)N1CCC(S(=O)(=O)c2ccccc2)CC1` , its GITAR Greater than by GRAMMER % SEP was 32.2%

// sample `CCCN(CCC(F)(F)F)C(=O)[C@H]1CCC2=Cc3c(cnn3-c3ccc(F)cc3)C[C@@]21C` , its GITAR Greater than by GRAMMER % SEP was 5.9%

// sample CN(CC(O)C(F)(F)F)C(=O)[C@H]1CCC2=Cc3c(cnn3-c3ccccc3)C[C@@]21C (some centres unmarked) [Compound 74] , its GITAR Greater than by GRAMMER % SEP was 35.1%

// sample `CCCCN(CCO)C(=O)[C@H]1CCC2=Cc3c(cnn3-c3ccc(F)cc3)C[C@@]21C` , its GITAR Greater than by GRAMMER % SEP was 44.1%

// sample C[C@]12Cc3cnn(-c4ccc(F)cc4)c3C=C1CC[C@@H]2C(=O)N(CCc1ccccc1F)CC(O)C(F)(F)F (some centres unmarked) [Compound 92] , its GITAR Greater than by GRAMMER % SEP was 4.7%

// sample `C[C@]12Cc3cnn(-c4ccc(F)cc4)c3C=C1CC[C@@H]2C(=O)N(CCO)Cc1ccccc1CS(=O)(=O)c1ccccc1` , its GITAR Greater than by GRAMMER % SEP was 31.2%

// sample CC(C)CN(CC(O)C(F)(F)F)C(=O)[C@H]1CCC2=Cc3c(cnn3-c3ccc(F)cc3)C[C@@]21C (some centres unmarked) , its GITAR Greater than by GRAMMER % SEP was 15.3%

// sample `C[C@]12Cc3cnn(-c4ccc(F)cc4)c3C=C1CC[C@@H]2C(=O)N(CCC#N)C1CC1` , its GITAR Greater than by GRAMMER % SEP was 27.1%

// sample `C[C@]12Cc3cnn(-c4ccc(F)cc4)c3C=C1CC[C@@H]2C(=O)N(CCO)Cc1csc2ccc(Cl)cc12` , its GITAR Greater than by GRAMMER % SEP was 12.9%

// sample `C[C@]12Cc3cnn(-c4ccc(F)cc4)c3C=C1CC[C@@H]2C(=O)Nc1ccccc1S(N)(=O)=O` , its GITAR Greater than by GRAMMER % SEP was 14.2%

// sample `C[C@]12Cc3cnn(-c4ccc(F)cc4)c3C=C1CC[C@@H]2C(=O)N(CCO)Cc1ccccc1F` , its GITAR Greater than by GRAMMER % SEP was 38.7%

// sample CCCN(C(=O)[C@H]1CCC2=Cc3c(cnn3-c3ccc(F)cc3)C[C@@]21C)C(C)CC (some centres unmarked) , its GITAR Greater than by GRAMMER % SEP was 28.1%

// sample CCCCN(CC(O)C(F)(F)F)C(=O)[C@H]1CCC2=Cc3c(cnn3-c3ccccc3)C[C@@]21C (some centres unmarked) , its GITAR Greater than by GRAMMER % SEP was 17.6%

// sample `CN(Cc1cccc(C(F)(F)F)c1)C(=O)[C@H]1CCC2=Cc3c(cnn3-c3ccc(F)cc3)C[C@@]21C` , its GITAR Greater than by GRAMMER % SEP was 12.7%

// sample `COc1cc(CN(CCO)C(=O)[C@H]2CCC3=Cc4c(cnn4-c4ccc(F)cc4)C[C@@]32C)cc(OC)c1` , its GITAR Greater than by GRAMMER % SEP was 44.1%

// sample C[C@]12Cc3cnn(-c4ccc(F)cc4)c3C=C1CC[C@@H]2C(=O)N(CCc1ccccc1F)CC(O)C(F)(F)F (some centres unmarked) [Compound 84] , its GITAR Greater than by GRAMMER % SEP was 25.7%

// sample `C[C@]12Cc3cnn(-c4ccc(F)cc4)c3C=C1CC[C@@H]2C(=O)N1CCC(C(F)(F)F)CC1` , its GITAR Greater than by GRAMMER % SEP was 35.3%
